pIC50: −log10 of the molar value.
This document collects pIC50 values reported for Prostate-specific antigen (KLK3) (Homo sapiens).
Quantity Measured: pIC50

a: O=C(O)c1ccc(COC(=O)[C@@H]2[C@H](Cc3ccc(O)cc3)C(=O)N2C(=O)Cc2cccc(C(=O)OCc3ccccc3)c2)cc1
b: O=C(O)c1ccc(COC(=O)c2cccc(CC(=O)N3C(=O)[C@@H](Cc4ccccc4)[C@H]3C(=O)OCc3ccc(C(=O)O)cc3)c2)cc1
c: O=C(OCc1ccccc1)c1cccc(CC(=O)N2C(=O)[C@@H](Cc3ccc(O)cc3)[C@H]2C(=O)OCc2ccccc2)c1 (stereo in doubt; 16)
Parameters: sort_by = pIC50; order = desc; input = items above. Output the labels ranked as instructed. c, a, b
(c: 6.46, a: 5.46, b: 5.23)
